# Measured Target: Human A3R (Homo sapiens)
# Construct: expressed in transfected cells
# Sequence (P0DMS8 1-318): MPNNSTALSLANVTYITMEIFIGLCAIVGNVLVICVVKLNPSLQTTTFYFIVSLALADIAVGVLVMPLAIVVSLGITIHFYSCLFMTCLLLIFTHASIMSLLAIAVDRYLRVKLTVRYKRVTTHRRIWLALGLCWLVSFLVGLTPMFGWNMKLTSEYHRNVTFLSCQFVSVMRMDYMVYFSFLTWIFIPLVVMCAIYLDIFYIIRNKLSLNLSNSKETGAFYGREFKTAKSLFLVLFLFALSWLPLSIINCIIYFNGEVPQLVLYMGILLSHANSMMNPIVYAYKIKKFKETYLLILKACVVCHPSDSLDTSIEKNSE
# Assay Summary: Radioligand binding at human A3 adenosine receptor ([125I]I-AB-MECA, CHO cell membranes)
# Details: n = 1; read-out: Affinity (nM) at Human A3R
Measured Endpoint: Ki (nM)

INSERT INTO measurements (smiles_notation, reported_result) VALUES
  ('Nc1nc(SCc2ccccc2)nc2c1ncn2[C@H]1[C@H](O)[C@H](O)[C@]2(CO)C[C@H]12', 55),
  ('CCSc1nc(N)c2ncn([C@H]3[C@H](O)[C@H](O)[C@]4(CO)C[C@H]34)c2n1', 909),
  ('CCCCCCSc1nc(N)c2ncn([C@H]3[C@H](O)[C@H](O)[C@]4(CO)C[C@H]34)c2n1', 504),
  ('Nc1nc(SC2CCCCC2)nc2c1ncn2[C@H]1[C@H](O)[C@H](O)[C@]2(CO)C[C@H]12', 1170),
  ('COc1nc(N)c2ncn([C@H]3[C@H](O)[C@H](O)[C@]4(CO)C[C@H]34)c2n1', 1050),
  ('Nc1nc(SCCc2ccccc2)nc2c1ncn2[C@H]1[C@H](O)[C@H](O)[C@]2(CO)C[C@H]12', 379),
  ('CSc1nc(N)c2ncn([C@H]3[C@H](O)[C@H](O)[C@]4(CO)C[C@H]34)c2n1', 1490);
